Biological target: 3',5'-cyclic-AMP phosphodiesterase 4B (Homo sapiens)
Test: qHTS Assay for Inhibitors of PDE-IV (AID 607)
Details: HEK293 ACTOne CNG channel cells, membrane potential fluorescence; series mostly up to 22.9 µM
Experimental: NIH Chemical Genomics Center [NCGC] NIH Molecular Libraries Screening Centers Network [MLSCN] […] Here we report the development of a cell-based screening assay for cAMP phosphodiesterase (PDE) inhibitors. […] The influx of cations through the CNG channel can be quantified using membrane potential (MP) dyes. […] The activity of the CNG channel was measured by BD ACTOneTM membrane potential dye kit (BD Biosciences). […]
Inconclusive results are not listed. Activity calls are given as the source filed them. The call rests on the fitted dose curve; in most records, active means well fitted activation curve with a large enough effect in the main read-out, with a control signal flat (not every such curve was filed as active); inconclusive means small, poorly fitted or top-dose-only effect, or effect the other way, or a change in a side signal; inactive means flat fitted curve, though single readings scatter.
recordedEndpoint: outcome

smilesRepresentation	testedTarget	measuredResult
Nc1nc2c(ncn2COC(CO)CO)c(=O)[nH]1	3',5'-cyclic-AMP phosphodiesterase 4B (Homo sapiens)	inactive
CN(C)CCC=C1c2ccccc2C=Cc2ccccc21	3',5'-cyclic-AMP phosphodiesterase 4B (Homo sapiens)	inactive
NCCS(=O)(=O)O	3',5'-cyclic-AMP phosphodiesterase 4B (Homo sapiens)	inactive
Cn1ccc2cc3c(cc21)CCN3C(=O)Nc1cccnc1	3',5'-cyclic-AMP phosphodiesterase 4B (Homo sapiens)	inactive
COc1ccc2c(c1)c(CC(=O)O)c(C)n2C(=O)c1ccc(Cl)cc1	3',5'-cyclic-AMP phosphodiesterase 4B (Homo sapiens)	inactive

I'm curious: which outcome was measured for `CN(Cc1cnc2nc(N)nc(N)c2n1)c1ccc(C(=O)N[C@@H](CCC(=O)O)C(=O)O)cc1` tested on 3',5'-cyclic-AMP phosphodiesterase 4B (Homo sapiens)?
inactive

I'm curious: which outcome was measured for `COC(=O)Nc1nc2ccc(C(=O)c3cccs3)cc2[nH]1` tested on 3',5'-cyclic-AMP phosphodiesterase 4B (Homo sapiens)?
inactive

---

Assay: qHTS to identify inhibitors of the type 1 interferon - major histocompatibility complex class I in skeletal muscle: primary screen against the NCATS Pharmaceutical Collection (AID 1347407);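 further: luminescence of HiBiT knocked into endogenous HLA-B as interferon-induced MHC class I level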
Details: human skeletal muscle cells, IFN-b-induced MHC-I HiBiT luminescence, 24 h; series mostly up to 45.9 µM
Records with an inconclusive call do not appear. Activity calls are given as the source filed them. Calls follow the shape of the dose curve; as a rule, active = well fitted inhibition curve with a large enough effect; inconclusive = small, poorly fitted or top-dose-only effect; inactive = flat fitted curve, though single readings scatter.
Hi! Could you answer with just one of these? active, inactive

Look over these answered cases.
molecule	cat
COc1cc2c(c(OC)c1OC)-c1ccc(OC)c(=O)cc1[C@@H](NC(C)=O)CC2	inactive
CCCNCC(O)COc1ccccc1C(=O)CCc1ccccc1 (centres undefined)	inactive
COc1ccc2[nH]cc(CCNC(C)=O)c2c1	inactive
C[C@@H]1CC(=O)NN=C1c1ccc(NN=C(C#N)C#N)cc1	inactive
O=C1Cc2cc(CCN3CCN(c4nsc5ccccc45)CC3)c(Cl)cc2N1	inactive

Assay outcome for `N[C@@H](Cc1c[nH]c2ccc(O)cc12)C(=O)O` : what was it?
inactive

Assay outcome for `CN1CCC(=C2c3ccccc3C=Cc3ccccc32)CC1` : what was it?
inactive

Assay outcome for `CS(=O)(=O)Nc1ccc([N+](=O)[O-])cc1Oc1ccccc1` : what was it?
inactive

Assay outcome for `NCCS(=O)(=O)O` : what was it?
inactive

Assay outcome for `CCOC(=O)C(C)(C)Oc1ccc(Cl)cc1` : what was it?
inactive

---

# Potency per record follows
Assay: Quantitative High-Throughput drug screen in 47 multiple myeloma cell lines against the NCATS MIPE library collection: SKMM1_PLB cell viability assay (AID 1919863); further: potency means the concentration at half of the fitted maximal effect; nearly all actives have a fitted effect of over 35% in size
Settings: SKMM1 myeloma viability, CellTiter-Glo ATP, 48 h
Inconclusive results are not listed. Active and inactive are the calls of the source. Calls come from the whole dose curve; as a rule, active = well fitted cell-killing curve with a large enough effect; inconclusive = small, poorly fitted or top-dose-only effect, or effect the other way; inactive = no such curve, though single readings can be large or run the other way.

compound	measuredResult
CC#C[C@]1(O)CC[C@H]2[C@@H]3CCC4=CC(=O)CCC4=C3[C@@H](c3ccc(N(C)C)cc3)C[C@@]21C	4.18 µM (active)
CN(Cc1cnc2nc(N)nc(N)c2n1)c1ccc(C(=O)N[C@@H](CCC(=O)O)C(=O)O)cc1	5.9 µM (active)
CN(C)C(=O)C(CCN1CCC(O)(c2ccc(Cl)cc2)CC1)(c1ccccc1)c1ccccc1	23.5 µM (active)
O=C(c1ccc(OCCN2CCCCC2)cc1)c1c(-c2ccc(O)cc2)sc2cc(O)ccc12	26.4 µM (active)
O=C(Nc1ccc([N+](=O)[O-])cc1Cl)c1cc(Cl)ccc1O	1.48 µM (active)

Requested field: Potency. Item: `CNCCCC12CCC(c3ccccc31)c1ccccc12`
18.7 µM (active)

Requested field: Potency. Item: `COc1cc2nc(N3CCN(C(=O)c4ccco4)CC3)nc(N)c2cc1OC`
23.5 µM (active)

Requested field: Potency. Item: `O=c1[nH]cc(F)c(=O)[nH]1`
13.2 µM (active)

Requested field: Potency. Item: CC(CCc1ccc(O)cc1)NCCc1ccc(O)c(O)c1 (stereo not given)
18.7 µM (active)

Requested field: Potency. Item: `NC(=O)NO`
10.5 µM (active)

---

Molecular target: Metallo-beta-lactamase type 2 (Klebsiella pneumoniae) (UniProt C7C422)
Sequence (C7C422 whole entry, looked up): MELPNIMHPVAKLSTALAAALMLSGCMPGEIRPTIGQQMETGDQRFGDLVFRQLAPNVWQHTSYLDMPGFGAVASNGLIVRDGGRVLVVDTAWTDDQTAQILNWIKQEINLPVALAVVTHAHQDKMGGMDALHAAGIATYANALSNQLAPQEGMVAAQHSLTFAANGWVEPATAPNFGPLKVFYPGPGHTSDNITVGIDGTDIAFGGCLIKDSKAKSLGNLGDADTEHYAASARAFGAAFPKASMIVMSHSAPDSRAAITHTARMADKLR
Assay: qHTS to identify inhibitors of the New Delhi Metallo-beta-lactamase (NDM): assay validation screen against the NCATS LOPAC Collection (AID 1794843);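 further: nitrocefin turnover by NDM-1 measured as 485 nm absorbance at plateau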
Settings: NDM-1 enzyme, nitrocefin hydrolysis, absorbance 485 nm; series mostly up to 38.4 µM
Results filed as inconclusive are left out. Activity calls are given as the source filed them. The call rests on the fitted dose curve; in most records, active means well fitted curve in the direction sought with a large enough effect; inconclusive means small, poorly fitted or top-dose-only effect, or another doubt; inactive means no such curve, though single readings can be large or run the other way.
recordedEndpoint: outcome

smilesRepresentation	measuredResult
Nc1c2c(nc3ccccc13)CCCC2	inactive
C[C@H]1c2cccc(O)c2C(O)=C2C(=O)[C@]3(O)C(O)=C(C(N)=O)C(=O)[C@@H](N(C)C)[C@@H]3[C@@H](O)[C@@H]21	inactive
Nc1ccn([C@H]2CC[C@@H](CO)O2)c(=O)n1	inactive

---

Assay: Quantitative High-Throughput drug screen in 47 multiple myeloma cell lines against the NCATS MIPE library collection: ARP1_JJKsccF8 cell viability assay (AID 1918928; further: nearly all actives have a fitted effect of over 40% in size)
Settings: ARP1 myeloma cells viability, CellTiter-Glo ATP, 48 h; series mostly up to 45.8 µM
Inconclusive results are not listed. Active and inactive are the calls of the source. The call rests on the fitted dose curve; in most records, active means well fitted cell-killing curve with a large enough effect; inconclusive means small, poorly fitted or top-dose-only effect, or effect the other way; inactive means no such curve, though single readings can be large or run the other way.
Hi! Could you answer with just one of these? active, inactive

Look over these answered cases.
molecule	cat
Nc1nnc(-c2cccc(Cl)c2Cl)c(N)n1	inactive
CN1CCN(C2=Nc3cc(Cl)ccc3Nc3ccccc32)CC1	inactive
CC(CCc1ccc(O)cc1)NCCc1ccc(O)c(O)c1 (configuration not stated)	active

Assay outcome for `CN(C)CCOC(c1ccccc1)c1ccccc1` : what was it?
inactive

Assay outcome for `CCOC(=O)Nc1ccc(NCc2ccc(F)cc2)nc1N` : what was it?
inactive

Assay outcome for COc1ccccc1OCC(O)CN1CCN(CC(=O)Nc2c(C)cccc2C)CC1 (configuration not stated) : what was it?
inactive

Assay outcome for COc1ccc(C2CNC(=O)C2)cc1OC1CCCC1 (configuration not stated) : what was it?
inactive

Assay outcome for `CC[C@@]1(O)C(=O)OCc2c1cc1n(c2=O)Cc2cc3c(CN(C)C)c(O)ccc3nc2-1` : what was it?
active

Assay outcome for `NC(=O)OCC(COC(N)=O)c1ccccc1` : what was it?
inactive

Assay outcome for `CCC1(c2ccccc2)C(=O)NCNC1=O` : what was it?
inactive

Assay outcome for `Cn1ccc2cc3c(cc21)CCN3C(=O)Nc1cccnc1` : what was it?
inactive

Assay outcome for `Cc1cn([C@H]2C=C[C@@H](CO)O2)c(=O)[nH]c1=O` : what was it?
inactive

---

Molecular target: Calcium and integrin-binding protein 1 (Homo sapiens)
Assay: Validation qHTS for Identification of Calcium Integrin Binding protein 1 (CIB1) Competitor (AID 1508618)
Conditions: CIB1-GST / FITC-alphaIIb peptide fluorescence polarization; series mostly up to 114 µM
Inconclusive results are not listed. Calls of active or inactive are those of the source. The call rests on the fitted dose curve; in most records, active means well fitted curve in the direction sought with a large enough effect; inconclusive means small, poorly fitted or top-dose-only effect, or another doubt; inactive means no such curve, though single readings can be large or run the other way.
Hi! Could you answer with just one of these? active, inactive

compound	testedTarget	cat
O=C(c1ccc(F)cc1)C1CCN(CCn2c(=O)[nH]c3ccccc3c2=O)CC1	Calcium and integrin-binding protein 1 (Homo sapiens)	inactive
CCOC(=O)C(C)(C)Oc1ccc(Cl)cc1	Calcium and integrin-binding protein 1 (Homo sapiens)	inactive
CN1CCC(=C2c3ccccc3C=Cc3ccccc32)CC1	Calcium and integrin-binding protein 1 (Homo sapiens)	inactive
COc1ccccc1OCCNCC(O)COc1cccc2[nH]c3ccccc3c12 (stereo not given)	Calcium and integrin-binding protein 1 (Homo sapiens)	inactive
COc1cc2c(c(OC)c1OC)-c1ccc(OC)c(=O)cc1[C@@H](NC(C)=O)CC2	Calcium and integrin-binding protein 1 (Homo sapiens)	inactive
C[C@H]1c2cccc(O)c2C(O)=C2C(=O)[C@]3(O)C(O)=C(C(N)=O)C(=O)[C@@H](N(C)C)[C@@H]3[C@@H](O)[C@@H]21	Calcium and integrin-binding protein 1 (Homo sapiens)	inactive
OCCN(CCO)c1nc(N2CCCCC2)c2nc(N(CCO)CCO)nc(N3CCCCC3)c2n1	Calcium and integrin-binding protein 1 (Homo sapiens)	active
Cn1ccc2cc3c(cc21)CCN3C(=O)Nc1cccnc1	Calcium and integrin-binding protein 1 (Homo sapiens)	inactive

Assay outcome for `NS(=O)(=O)c1cc2c(cc1Cl)NCNS2(=O)=O` : what was it?
inactive

Assay outcome for `CNCCCC12CCC(c3ccccc31)c1ccccc12` : what was it?
inactive
